For each entry below, report its IC50 value.
- TEST_TARGET: Isocitrate dehydrogenase
- METHOD_NOTES: Inhibitor IC50 against NADPH dependent oxidoreductase, by his-mBFP fluorescence quantification of NADPH
- CONDITION_INFO: compounds added at 0.1 to 10 mM, sigma plot
The reply should be a number in µM, with the unit left off.

Quick note, IC50 for O=C(O)C(=O)C(C(=O)O)C(O)C(=O)O (centres unmarked) landed at 63.3

Quick note, IC50 for CC(O)(C(=O)O)C(CC(=O)O)C(=O)O (centres unmarked) landed at 102
